# studySystem: recombinant factor H binding protein (FHbp) ID 1 (Neisseria meningitidis serogroup B …, UniProt Q9JXV4)
# Sequence (Q9JXV4 20-274): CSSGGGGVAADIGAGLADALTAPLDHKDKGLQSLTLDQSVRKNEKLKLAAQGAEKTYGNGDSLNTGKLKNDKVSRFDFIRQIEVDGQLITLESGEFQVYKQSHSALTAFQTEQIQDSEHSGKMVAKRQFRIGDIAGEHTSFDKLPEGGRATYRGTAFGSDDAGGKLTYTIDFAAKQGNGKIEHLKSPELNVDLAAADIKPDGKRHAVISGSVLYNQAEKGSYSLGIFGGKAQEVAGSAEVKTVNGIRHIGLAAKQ
# protocolDescription: SPR
assayEndpoint: kon (M⁻¹ s⁻¹)
// note: answer is a bare numeric in M⁻¹ s⁻¹

[ask] Specify measured kon for human anti-FHbp Fab 6B (Fab, V domains shown) VH: EVQLVESGGGLVQPGGSLRLSCAASGFTFSSYAMSWVRQAPGKGLEWVSAISGSGGSSHYTDSVKGRFTISRDNSKNTLWLQMNSLRAEDTAIYYCAKTSGSYYYHYEIDVWGQGTTVTVSS VL: EIVLTQSPGTLSLSPGERATLSCRASQSVSSSYLAWYQQKPGQAPRLLIYGTSNRATGIPDRFSGSGSGTDFTLTVSRLEPEDFAVYYCQQYGSSPCSFGQGTKLELK .
[reply] 500000
